Below, each entry is listed alongside its reported pKi.
measurement target: Dimer of Gag-Pol polyprotein [489-587] (Human immunodeficiency virus 1, UniProt P04585)
Construct: 489-587
test name: Protease Inhibition Assay
// field semantics: pKi = negative decimal log of concentration (mol/L)

O=C1N(Cc2cccc(O)c2)[C@H](Cc2ccccc2)[C@H](O)[C@@H](O)[C@@H](Cc2ccccc2)N1Cc1cccc(O)c1    9.92

Consider "O=C1N(Cc2ccc(O)cc2)[C@H](Cc2ccccc2)[C@H](O)[C@@H](O)[C@@H](Cc2ccccc2)N1Cc1ccc(O)cc1" . Its measured pKi is 9.92

Consider "O=C1N(Cc2cccc(CO)c2)[C@H](Cc2ccccc2)[C@H](O)[C@@H](O)[C@@H](Cc2ccccc2)N1Cc1cccc(CO)c1" . Its measured pKi is 9.85

Consider "O=C1N(Cc2cccc([N+](=O)[O-])c2)[C@H](Cc2ccccc2)[C@H](O)[C@@H](O)[C@@H](Cc2ccccc2)N1Cc1cccc([N+](=O)[O-])c1" . Its measured pKi is 8.55

---

measurement target: Dimer of Gag-Pol polyprotein [489-587] (Human immunodeficiency virus 1)
Construct: 489-587
test name: Protease Inhibition Assay
run conditions: pH 5.5; 37 °C
pKi: −log10 of the molar value.
observed property: pKi

The compound "NC(=O)NC1=N[C@H](Cc2ccccc2)[C@H](O)[C@@H](O)[C@@H](Cc2ccccc2)N1" on Dimer of Gag-Pol polyprotein [489-587] (Human immunodeficiency virus 1): pKi was < 4.90
